Data provenance is patent EP2423181A1.

This section presents compounds with their documented inhibition at 10 µM values.
TARGET OF ASSAY: 5-LO (Homo sapiens, UniProt P09917)
Construct: host or cells: Sf9 insect cells
Sequence (P09917 whole entry): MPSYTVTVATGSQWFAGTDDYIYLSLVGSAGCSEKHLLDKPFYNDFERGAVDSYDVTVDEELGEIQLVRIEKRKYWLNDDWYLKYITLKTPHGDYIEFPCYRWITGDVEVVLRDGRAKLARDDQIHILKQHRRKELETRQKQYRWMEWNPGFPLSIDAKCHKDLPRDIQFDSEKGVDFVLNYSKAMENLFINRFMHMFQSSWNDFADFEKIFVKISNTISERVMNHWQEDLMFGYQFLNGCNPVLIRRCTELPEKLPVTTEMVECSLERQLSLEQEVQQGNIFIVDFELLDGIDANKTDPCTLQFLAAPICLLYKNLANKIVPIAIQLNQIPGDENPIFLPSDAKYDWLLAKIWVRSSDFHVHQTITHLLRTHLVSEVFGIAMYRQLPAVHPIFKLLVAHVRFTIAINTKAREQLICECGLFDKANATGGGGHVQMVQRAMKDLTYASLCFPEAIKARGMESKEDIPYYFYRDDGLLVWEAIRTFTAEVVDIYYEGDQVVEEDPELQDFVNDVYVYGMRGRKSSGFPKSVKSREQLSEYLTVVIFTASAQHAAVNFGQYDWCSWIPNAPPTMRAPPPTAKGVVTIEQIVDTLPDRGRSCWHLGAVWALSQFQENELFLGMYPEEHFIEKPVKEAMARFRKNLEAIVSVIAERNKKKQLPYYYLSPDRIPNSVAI
PROTOCOL DESCRIPTION: 5-Lipoxygenase inhibition (LTB4 enzyme immunoassay)
Format: biochemical
PARTICULARS: 5-LO, at 10 µM; read-out: % Inhibition
Counter-ions that a name gives are not always drawn.
The reply should read as a number followed by its unit.

Known inhibition at 10 µM results, listed for orientation:
Input line: Return inhibition at 10 µM measured with 5-LO (Homo sapiens, UniProt P09917) given this compound: C=CCc1ccc(OC(CCNC)c2ccccc2)c(-c2ccc(O)c(CC=C)c2)c1.Cl (stereo not shown) [Example 4, hydrochloride]
Output line: 100%

Input line: Return inhibition at 10 µM measured with 5-LO (Homo sapiens, UniProt P09917) given this compound: C=CCc1ccc(O)c(-c2ccc(O)c(CC=C)c2)c1 [Honokiol, reference compound]
Output line: 85%

Input line: Return inhibition at 10 µM measured with 5-LO (Homo sapiens, UniProt P09917) given this compound: C=CCc1ccc(O)c(-c2cc(CC=C)ccc2OC(CCNC)c2ccccc2)c1.Cl (stereo not shown) [Example 1, hydrochloride]
Output line: 100%

Moving on to another compound below.
Input line: Return inhibition at 10 µM measured with 5-LO (Homo sapiens, UniProt P09917) given this compound: CCCc1ccc(O)c(-c2ccc(OC(CCNC)c3ccccc3)c(CCC)c2)c1 (stereo not shown) [Example 6, hydrochloride]
Output line: 100%

###

Test system: tumor melanoma B16-FO
PROTOCOL DESCRIPTION: Tumor cell proliferation assay (alamarBlue)
Assay type: cell-based, murine
PARTICULARS: Mus musculus
Protocol: Changes in cell proliferation were detected based on the ability of viable cells to cause alamarBlue® to change its oxidized (non-fluorescent, blue) to a reduced (fluorescent, red) form. The alamarBlue® reaction allows the quantification of cell proliferation and examination of the metabolic activity of viable cells. Test substances were examined for activity on the proliferation of human or murine tumor cell lines at assay concentrations from 0.01 to 100 µM.
Structures can show the parent of a compound that is named as a salt.
This section presents molecules with their documented IC50 values.
Numeric answer only, unit µM assumed.

Input line: Need IC50, item C=CCc1ccc(O)c(-c2cc(CC=C)ccc2O)c1 [Magnolol, reference compound]
Output line: 28

Moving on to another molecule below.
Input line: Need IC50, item C=CCc1ccc(O)c(-c2ccc(OC(CCNC)c3ccccc3)c(CC=C)c2)c1 (centres unmarked) [Example 5, hydrochloride]
Output line: 1.6
